// data source = ChEMBL document CHEMBL4814030

assayMethodText: Metabolic stability in rat microsomes assessed as half life
Assay type: ADME, Microsome
observedProperty: t1/2

Field: example entries. Status: answers known.
Query block: Sample NS(=O)(=O)c1ccc(Cc2c(-c3ccc(F)c(OCc4ccc(C(F)(F)F)o4)c3)nn(-c3nc(C(=O)O)cs3)c2CC2CC2)cc1F — what was its t1/2?
Result block: > 30 min

Query block: Sample NS(=O)(=O)c1ccc(Cc2c(-c3ccc(F)c(C(=O)N4CCCC4)c3)nn(-c3nc(C(=O)O)cs3)c2CC2CC2)cc1F — what was its t1/2?
Result block: > 30 min

Query block: Sample NS(=O)(=O)c1ccc(Cc2c(-c3ccc(F)c(OCC4CC4(F)F)c3)nn(-c3nc(C(=O)O)cs3)c2CC2CC2)cc1F (centres undefined) — what was its t1/2?
Result block: > 30 min

# ---- query molecule ----
Query block: Sample NS(=O)(=O)c1ccc(Cc2c(-c3ccc(F)c(OCc4cccc(F)c4)c3)nn(-c3nc(C(=O)O)cs3)c2CC2CC2)cc1F — what was its t1/2?
Result block: < 1 min
